B1: library; numbered along this chain (parent)
chain: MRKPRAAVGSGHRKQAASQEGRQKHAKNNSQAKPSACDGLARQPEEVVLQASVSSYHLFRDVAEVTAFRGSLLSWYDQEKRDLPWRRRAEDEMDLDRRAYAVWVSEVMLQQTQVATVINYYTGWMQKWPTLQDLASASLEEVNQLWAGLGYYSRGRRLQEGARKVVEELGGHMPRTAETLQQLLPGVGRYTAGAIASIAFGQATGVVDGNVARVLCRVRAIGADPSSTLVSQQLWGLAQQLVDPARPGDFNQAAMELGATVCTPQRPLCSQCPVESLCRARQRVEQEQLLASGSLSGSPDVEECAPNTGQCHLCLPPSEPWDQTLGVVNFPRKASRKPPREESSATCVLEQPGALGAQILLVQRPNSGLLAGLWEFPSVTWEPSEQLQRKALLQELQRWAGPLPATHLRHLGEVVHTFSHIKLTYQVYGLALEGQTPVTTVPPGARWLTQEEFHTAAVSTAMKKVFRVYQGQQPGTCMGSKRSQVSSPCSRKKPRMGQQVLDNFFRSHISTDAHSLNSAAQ

Variants of: B1
Assay: 8OG:A repair function score (normalized; synonymous = 0, nonsense = -1) (normalized log-likelihood score); higher = more repair activity (WT-like);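 further: cells sorted at 72 h after reporter transfection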
Conditions: with 8OG:A DNA repair reporter (GFP) in HEK-293 MUTYH KO cells
Below, each entry is listed with its recorded 8OG:A repair function score.
I'd appreciate a reply containing only the number, no unit.

// known answers, use as guide
{"VARIANT": "R446M", "RECORDED METRIC": "8OG:A repair function score", "MEASURED": -0.121}
{"VARIANT": "T176Y", "RECORDED METRIC": "8OG:A repair function score", "MEASURED": -0.16}
{"VARIANT": "P331I", "RECORDED METRIC": "8OG:A repair function score", "MEASURED": -0.596}
{"VARIANT": "Q252Y", "RECORDED METRIC": "8OG:A repair function score", "MEASURED": -0.982}
{"VARIANT": "A199H", "RECORDED METRIC": "8OG:A repair function score", "MEASURED": -0.874}
{"VARIANT": "R389T", "RECORDED METRIC": "8OG:A repair function score", "MEASURED": 0.1}
{"VARIANT": "Q521W", "RECORDED METRIC": "8OG:A repair function score", "MEASURED": 0.00491}
{"VARIANT": "C216D", "RECORDED METRIC": "8OG:A repair function score", "MEASURED": -0.949}

**Q:** Look up 8OG:A repair function score for this variant: P339V
**A:** -0.0967

**Q:** Consider next the variant H172A in the same way.
**A:** -0.0729

**Q:** Consider next the variant L109I in the same way.
**A:** -1.04

**Q:** Consider next the variant E433I in the same way.
**A:** 0.00922

**Q:** Consider next the variant S138C in the same way.
**A:** -0.385

**Q:** Consider next the variant T263N in the same way.
**A:** -0.0422

Cited source for all entries: the supplement of paper PMC11908140
